Known viability, T/C of a selection of compounds
# Tested on: MPNST complex spheroid with HUVEC/MSC, growth, % test/control
# experimental details: Anticancer human tumor MPNST cell line growth inhibition [Asc];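 also: compounds left on spheroids for seven days before reading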
# run conditions: second compound 0.01 µM; first compound 0.0316 µM; stronger effect = lower value
Report the value in % with no unit label.

compound | assayed target | viability, T/C, %
C=C(F)C(=O)N1CCN(c2nc(OCC3CCCN3C)nc3c2CCN(c2cccc4cccc(Cl)c24)C3)CC1CC#N (centres undefined) + CNC(C)C(=O)NC1CN(S(=O)(=O)c2cccc(S(=O)(=O)N3CCC4CCC(C(=O)NC(c5ccccc5)c5ccccc5)N4C(=O)C(NC(=O)C(C)NC)C3)c2)CCC2CCC(C(=O)NC(c3ccccc3)c3ccccc3)N2C1=O | MPNST complex spheroid with HUVEC/MSC, growth, % test/control | 85.9
O=C(c1cc(Cc2n[nH]c(=O)c3ccccc23)ccc1F)N1CCN(C(=O)C2CC2)CC1 + CNC(C)C(=O)NC1CN(S(=O)(=O)c2cccc(S(=O)(=O)N3CCC4CCC(C(=O)NC(c5ccccc5)c5ccccc5)N4C(=O)C(NC(=O)C(C)NC)C3)c2)CCC2CCC(C(=O)NC(c3ccccc3)c3ccccc3)N2C1=O | MPNST complex spheroid with HUVEC/MSC, growth, % test/control | 41
CCN1CCN(Cc2ccc(Nc3ncc(F)c(-c4cc(F)c5nc(C)n(C(C)C)c5c4)n3)nc2)CC1 + CNC(C)C(=O)NC1CN(S(=O)(=O)c2cccc(S(=O)(=O)N3CCC4CCC(C(=O)NC(c5ccccc5)c5ccccc5)N4C(=O)C(NC(=O)C(C)NC)C3)c2)CCC2CCC(C(=O)NC(c3ccccc3)c3ccccc3)N2C1=O | MPNST complex spheroid with HUVEC/MSC, growth, % test/control | 102

Switching to the query record.
Q) Can you look up the measured viability, T/C of NC1CCC(NC2CC2c2ccccc2)CC1 (centres undefined) + CNC(C)C(=O)NC1CN(S(=O)(=O)c2cccc(S(=O)(=O)N3CCC4CCC(C(=O)NC(c5ccccc5)c5ccccc5)N4C(=O)C(NC(=O)C(C)NC)C3)c2)CCC2CCC(C(=O)NC(c3ccccc3)c3ccccc3)N2C1=O for me?
A) 62.6

====

# Tested on: MPNST complex spheroid with HUVEC/MSC, growth, % test/control
# experimental details: Anticancer human tumor MPNST cell line growth inhibition [Asc];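 also: compounds left on spheroids for seven days before reading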
# run conditions: second compound 10 µM; first compound 0.1 µM; stronger effect = lower value
Mark each entry Yes if its viability, T/C sits below 90%, and No for all others.

Q) Please indicate whether the reported viability, T/C of C=C(F)C(=O)N1CCN(c2nc(OCC3CCCN3C)nc3c2CCN(c2cccc4cccc(Cl)c24)C3)CC1CC#N (stereo not drawn) + Cc1c(S(C)(=O)=O)c(-c2cc(F)cc(N3CCN(c4ccc(NS(=O)(=O)c5ccc(NC(CCN6CCC(C(=O)OCCCP(=O)(O)O)CC6)CSc6ccccc6)c(S(=O)(=O)C(F)(F)F)c5)cc4)CC3)c2)c(-c2ccc(Cl)cc2)n1C(C)C is strictly below 90%.
A) Yes

Q) Please indicate whether the reported viability, T/C of C#Cc1c(F)ccc2cc(O)cc(-c3ncc4c(N5CC6CCC(C5)N6)nc(OCC56CCCN5CC(F)C6)nc4c3F)c12 (stereo not drawn) + Cc1c(S(C)(=O)=O)c(-c2cc(F)cc(N3CCN(c4ccc(NS(=O)(=O)c5ccc(NC(CCN6CCC(C(=O)OCCCP(=O)(O)O)CC6)CSc6ccccc6)c(S(=O)(=O)C(F)(F)F)c5)cc4)CC3)c2)c(-c2ccc(Cl)cc2)n1C(C)C is strictly below 90%.
A) No

Q) Please indicate whether the reported viability, T/C of CNC(C)C(=O)NC1CN(S(=O)(=O)c2cccc(S(=O)(=O)N3CCC4CCC(C(=O)NC(c5ccccc5)c5ccccc5)N4C(=O)C(NC(=O)C(C)NC)C3)c2)CCC2CCC(C(=O)NC(c3ccccc3)c3ccccc3)N2C1=O (stereo not drawn) + Cc1c(S(C)(=O)=O)c(-c2cc(F)cc(N3CCN(c4ccc(NS(=O)(=O)c5ccc(NC(CCN6CCC(C(=O)OCCCP(=O)(O)O)CC6)CSc6ccccc6)c(S(=O)(=O)C(F)(F)F)c5)cc4)CC3)c2)c(-c2ccc(Cl)cc2)n1C(C)C is strictly below 90%.
A) No

Q) Please indicate whether the reported viability, T/C of O=C(c1ccc(F)c(F)c1Nc1ccc(I)cc1F)N1CC(O)([C@@H]2CCCCN2)C1 + Cc1c(S(C)(=O)=O)c(-c2cc(F)cc(N3CCN(c4ccc(NS(=O)(=O)c5ccc(NC(CCN6CCC(C(=O)OCCCP(=O)(O)O)CC6)CSc6ccccc6)c(S(=O)(=O)C(F)(F)F)c5)cc4)CC3)c2)c(-c2ccc(Cl)cc2)n1C(C)C is strictly below 90%.
A) Yes

Q) Please indicate whether the reported viability, T/C of Cn1ncnc1[C@H]1c2n[nH]c(=O)c3cc(F)cc(c23)N[C@@H]1c1ccc(F)cc1 + Cc1c(S(C)(=O)=O)c(-c2cc(F)cc(N3CCN(c4ccc(NS(=O)(=O)c5ccc(NC(CCN6CCC(C(=O)OCCCP(=O)(O)O)CC6)CSc6ccccc6)c(S(=O)(=O)C(F)(F)F)c5)cc4)CC3)c2)c(-c2ccc(Cl)cc2)n1C(C)C is strictly below 90%.
A) Yes

Q) Please indicate whether the reported viability, T/C of COc1c(OCCCN2CCOCC2)ccc2c3n(c(=NC(=O)c4cnc(N)nc4)nc12)CCN3 + Cc1c(S(C)(=O)=O)c(-c2cc(F)cc(N3CCN(c4ccc(NS(=O)(=O)c5ccc(NC(CCN6CCC(C(=O)OCCCP(=O)(O)O)CC6)CSc6ccccc6)c(S(=O)(=O)C(F)(F)F)c5)cc4)CC3)c2)c(-c2ccc(Cl)cc2)n1C(C)C is strictly below 90%.
A) Yes

Q) Please indicate whether the reported viability, T/C of O=C(c1cc(Cc2n[nH]c(=O)c3ccccc23)ccc1F)N1CCN(C(=O)C2CC2)CC1 + Cc1c(S(C)(=O)=O)c(-c2cc(F)cc(N3CCN(c4ccc(NS(=O)(=O)c5ccc(NC(CCN6CCC(C(=O)OCCCP(=O)(O)O)CC6)CSc6ccccc6)c(S(=O)(=O)C(F)(F)F)c5)cc4)CC3)c2)c(-c2ccc(Cl)cc2)n1C(C)C is strictly below 90%.
A) Yes

====

# Test system: MPNST complex spheroid with HUVEC/MSC, growth, % test/control
# experimental details: Anticancer human tumor MPNST cell line growth inhibition [Asc];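 also: compounds left on spheroids for seven days before reading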
# run conditions: curve of first compound; second compound 1 µM
Mark each entry 1 if its IC50 sits below 0.9 µM, and -1 for all others.

Example entries and their recorded answers appear below.
compound | assayed target | answer label
CCN1CCN(Cc2ccc(Nc3ncc(F)c(-c4cc(F)c5nc(C)n(C(C)C)c5c4)n3)nc2)CC1 + Cc1c(S(C)(=O)=O)c(-c2cc(F)cc(N3CCN(c4ccc(NS(=O)(=O)c5ccc(NC(CCN6CCC(C(=O)OCCCP(=O)(O)O)CC6)CSc6ccccc6)c(S(=O)(=O)C(F)(F)F)c5)cc4)CC3)c2)c(-c2ccc(Cl)cc2)n1C(C)C | MPNST complex spheroid with HUVEC/MSC, growth, % test/control | -1
O=C(c1cc(Cc2n[nH]c(=O)c3ccccc23)ccc1F)N1CCN(C(=O)C2CC2)CC1 + CNC(C)C(=O)NC1CN(S(=O)(=O)c2cccc(S(=O)(=O)N3CCC4CCC(C(=O)NC(c5ccccc5)c5ccccc5)N4C(=O)C(NC(=O)C(C)NC)C3)c2)CCC2CCC(C(=O)NC(c3ccccc3)c3ccccc3)N2C1=O | MPNST complex spheroid with HUVEC/MSC, growth, % test/control | -1
O=C(c1cc(Cc2n[nH]c(=O)c3ccccc23)ccc1F)N1CCN(C(=O)C2CC2)CC1 + Cc1c(S(C)(=O)=O)c(-c2cc(F)cc(N3CCN(c4ccc(NS(=O)(=O)c5ccc(NC(CCN6CCC(C(=O)OCCCP(=O)(O)O)CC6)CSc6ccccc6)c(S(=O)(=O)C(F)(F)F)c5)cc4)CC3)c2)c(-c2ccc(Cl)cc2)n1C(C)C | MPNST complex spheroid with HUVEC/MSC, growth, % test/control | -1
COc1c(OCCCN2CCOCC2)ccc2c3n(c(=NC(=O)c4cnc(N)nc4)nc12)CCN3 + CNC(C)C(=O)NC1CN(S(=O)(=O)c2cccc(S(=O)(=O)N3CCC4CCC(C(=O)NC(c5ccccc5)c5ccccc5)N4C(=O)C(NC(=O)C(C)NC)C3)c2)CCC2CCC(C(=O)NC(c3ccccc3)c3ccccc3)N2C1=O | MPNST complex spheroid with HUVEC/MSC, growth, % test/control | 1
CNC(C)C(=O)NC1CN(S(=O)(=O)c2cccc(S(=O)(=O)N3CCC4CCC(C(=O)NC(c5ccccc5)c5ccccc5)N4C(=O)C(NC(=O)C(C)NC)C3)c2)CCC2CCC(C(=O)NC(c3ccccc3)c3ccccc3)N2C1=O (stereo not drawn) + Cc1c(S(C)(=O)=O)c(-c2cc(F)cc(N3CCN(c4ccc(NS(=O)(=O)c5ccc(NC(CCN6CCC(C(=O)OCCCP(=O)(O)O)CC6)CSc6ccccc6)c(S(=O)(=O)C(F)(F)F)c5)cc4)CC3)c2)c(-c2ccc(Cl)cc2)n1C(C)C | MPNST complex spheroid with HUVEC/MSC, growth, % test/control | -1
C=C(F)C(=O)N1CCN(c2nc(OCC3CCCN3C)nc3c2CCN(c2cccc4cccc(Cl)c24)C3)CC1CC#N (stereo not drawn) + Cc1c(S(C)(=O)=O)c(-c2cc(F)cc(N3CCN(c4ccc(NS(=O)(=O)c5ccc(NC(CCN6CCC(C(=O)OCCCP(=O)(O)O)CC6)CSc6ccccc6)c(S(=O)(=O)C(F)(F)F)c5)cc4)CC3)c2)c(-c2ccc(Cl)cc2)n1C(C)C | MPNST complex spheroid with HUVEC/MSC, growth, % test/control | -1
NC(=O)C(=Cn1cnc(-c2cc(C(F)(F)F)cc(C(F)(F)F)c2)n1)c1cncnc1 + Cc1c(S(C)(=O)=O)c(-c2cc(F)cc(N3CCN(c4ccc(NS(=O)(=O)c5ccc(NC(CCN6CCC(C(=O)OCCCP(=O)(O)O)CC6)CSc6ccccc6)c(S(=O)(=O)C(F)(F)F)c5)cc4)CC3)c2)c(-c2ccc(Cl)cc2)n1C(C)C | MPNST complex spheroid with HUVEC/MSC, growth, % test/control | 1
Cc1nc(N2CCC3(CC2)COC(C)C3N)c(CO)nc1Sc1ccnc(N)c1Cl (stereo not drawn) + CNC(C)C(=O)NC1CN(S(=O)(=O)c2cccc(S(=O)(=O)N3CCC4CCC(C(=O)NC(c5ccccc5)c5ccccc5)N4C(=O)C(NC(=O)C(C)NC)C3)c2)CCC2CCC(C(=O)NC(c3ccccc3)c3ccccc3)N2C1=O | MPNST complex spheroid with HUVEC/MSC, growth, % test/control | 1
C=C(F)C(=O)N1CCN(c2nc(OCC3CCCN3C)nc3c2CCN(c2cccc4cccc(Cl)c24)C3)CC1CC#N (stereo not drawn) + CNC(C)C(=O)NC1CN(S(=O)(=O)c2cccc(S(=O)(=O)N3CCC4CCC(C(=O)NC(c5ccccc5)c5ccccc5)N4C(=O)C(NC(=O)C(C)NC)C3)c2)CCC2CCC(C(=O)NC(c3ccccc3)c3ccccc3)N2C1=O | MPNST complex spheroid with HUVEC/MSC, growth, % test/control | -1

Now examine the next entry.
Q) Please indicate whether the reported IC50 of Cn1ncnc1[C@H]1c2n[nH]c(=O)c3cc(F)cc(c23)N[C@@H]1c1ccc(F)cc1 + CNC(C)C(=O)NC1CN(S(=O)(=O)c2cccc(S(=O)(=O)N3CCC4CCC(C(=O)NC(c5ccccc5)c5ccccc5)N4C(=O)C(NC(=O)C(C)NC)C3)c2)CCC2CCC(C(=O)NC(c3ccccc3)c3ccccc3)N2C1=O is strictly below 0.9 µM.
A) 1
